Target of assay: T1, HLA-DR DRB1*1101 (human)
T1 chain 1: not shown
T1 chain 2: not shown
Assay name: radiolabeled-peptide inhibition, purified HLA-DR
Condition notes: remark: other sources report otherwise
Measured log10 IC50 of individual entries
A difference of one corresponds to tenfold IC50; all values are log10 with IC50 in nM.

A selection of reference data follows.
Binder: SDVWSYGVTVWELMT [9019.0089]
log10 IC50: 3.42
//
Binder: ILLVVVLGVVFGILI [9019.0068]
log10 IC50: 3.39
//
Binder: GMSYLEDVRLVHRDL [9019.0002]
log10 IC50: 2.39
//
Binder: KIPVAIKVLRENTSP [1622.03]
log10 IC50: 3.61
//
Binder: PESFDGDPASNTAPL [9019.0048]
log10 IC50: 4.10

# next binder below
Request: If you can, please state the reported log10 IC50 value of ITGYLYISAWPDSLP [9019.0050] .
Response: 3.41
